koff for assorted binders
- target of assay: T1, Recombinant MBP-mutCALR Type 1 fusion protein (human)
- T1 construct: custom made at Cepter; also called recombinant mutCALR protein
- run description: SPR, IgG captured, 1:1 fit, Exp. 2

anti-mutCALR antibody clone 128 (antibody, human IgG1, lambda, N297A, V domains shown, human IgG1 N297A variant of clone 15) VH: EVQLVQSGAEVKKPGASVKVSCKVSGYTLTELSMQWVRQAPGKGLEWMGGFDPDDAETMYAEKFQGRLTVTEDTSTDTVYMELRSLTSEDTALYFCATSPGYDFFDYWGQGTLVTVSS VL: SYELTQPPSVSVAPGKTARITCGGDNIGSKSVHWYQQKPGQAPVLVVYDDSDRPSGIPERFSGSNSGNTATLTINRVEAGDEADYYCQVWDSSNDLLIFGGGTKLTVLG; 0.00207 s⁻¹
anti-mutCALR antibody clone 177 (antibody, human IgG1, lambda, N297A, V domains shown, human IgG1 N297A variant of clone 17) VH: EVQLVQSGAEVKKPGASVKVSCKVSGYTLTELSMQWVRQAPGKGLEWMGGFDPDSGETMYAEKFQGRLTVTEDTSTDTVYMELSSLRSEDTAVYFCATSPGYDFFDYWGQGTLVTVSS VL: SYVLTQPPSVSVAPGQTARITCGGSDIGDEIVHWYQQKPGQAPVLVVYDDSDRPSGIPERFSGSNSGNTATLTISRAQAGDEADYYCQVWDSSSDHLIFGGGTKLTVLG; 0.00549 s⁻¹
anti-mutCALR antibody clone 181 (antibody, human IgG1, lambda, N297A, V domains shown, human IgG1 N297A variant of clone 17) VH: EVQLVQSGAEVKKPGASVKVSCKVSGYTLTELSMQWVRQAPGKGLEWMGGFDPDAGETMYAEKFQGRLTVTEDTSTDTVYMELRSLTSEDTALYFCATSPGYDFFDYWGQGTLVTVSS VL: SYVLTQPPSVSVAPGQTARITCGGSDIGDEIVHWYQQKPGQAPVLVVYDDSDRPSGIPERFSGSNSGNTATLTISRVEAGDEADYYCQVWDSSSDHLIFGGGTKLTVLG; 0.0209 s⁻¹
anti-mutCALR antibody clone 172 (antibody, human IgG1, lambda, N297A, V domains shown, human IgG1 N297A variant of clone 17) VH: EVQLVQSGAEVKKPGASVKVSCKVSGYTLTELSMQWVRQAPGKGLEWMGGFDPDSGETMYAEKFQGRLTVTEDTSTDTVYMELRSLTSEDTALYFCATSPGYDFFDYWGQGTLVTVSS VL: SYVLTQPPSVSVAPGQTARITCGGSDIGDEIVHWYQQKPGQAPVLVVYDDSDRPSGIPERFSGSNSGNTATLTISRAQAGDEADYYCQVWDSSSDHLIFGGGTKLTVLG; 0.0025 s⁻¹

Proceeding to the next binder to report its koff.
Look up koff for this binder: anti-mutCALR antibody clone 67 (antibody, human IgG1, lambda, N297A, V domains shown, human IgG1 N297A variant of clone 6) VH: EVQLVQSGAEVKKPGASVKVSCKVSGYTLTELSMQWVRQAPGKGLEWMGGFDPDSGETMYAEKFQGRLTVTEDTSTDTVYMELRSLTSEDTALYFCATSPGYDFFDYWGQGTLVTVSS VL: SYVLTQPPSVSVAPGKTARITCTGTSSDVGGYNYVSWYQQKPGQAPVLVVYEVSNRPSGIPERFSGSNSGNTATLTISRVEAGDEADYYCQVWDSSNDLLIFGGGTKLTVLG
0.0102 s⁻¹
